The reported measurements were obtained from patent US8575360B2.

# reported pIC50; entries follow
biological target: LFA-1 (CD18/CD11a) binding to ICAM-1 (Homo sapiens, UniProt P05107+P20701); construct: followed by purified LFA-1 (in buffer of 50 mM triethylamine, 150 mM NaCl, 1% beta octylglucoside); assay: LFA-1/Biotin-sICAM-1 AlphaScreen assay: inhibition of LFA-1 binding to ICAM-1; conditions: 37° C. 90 minutes, highest compound concentration 1 μM
Sequence (P20701 26-1170): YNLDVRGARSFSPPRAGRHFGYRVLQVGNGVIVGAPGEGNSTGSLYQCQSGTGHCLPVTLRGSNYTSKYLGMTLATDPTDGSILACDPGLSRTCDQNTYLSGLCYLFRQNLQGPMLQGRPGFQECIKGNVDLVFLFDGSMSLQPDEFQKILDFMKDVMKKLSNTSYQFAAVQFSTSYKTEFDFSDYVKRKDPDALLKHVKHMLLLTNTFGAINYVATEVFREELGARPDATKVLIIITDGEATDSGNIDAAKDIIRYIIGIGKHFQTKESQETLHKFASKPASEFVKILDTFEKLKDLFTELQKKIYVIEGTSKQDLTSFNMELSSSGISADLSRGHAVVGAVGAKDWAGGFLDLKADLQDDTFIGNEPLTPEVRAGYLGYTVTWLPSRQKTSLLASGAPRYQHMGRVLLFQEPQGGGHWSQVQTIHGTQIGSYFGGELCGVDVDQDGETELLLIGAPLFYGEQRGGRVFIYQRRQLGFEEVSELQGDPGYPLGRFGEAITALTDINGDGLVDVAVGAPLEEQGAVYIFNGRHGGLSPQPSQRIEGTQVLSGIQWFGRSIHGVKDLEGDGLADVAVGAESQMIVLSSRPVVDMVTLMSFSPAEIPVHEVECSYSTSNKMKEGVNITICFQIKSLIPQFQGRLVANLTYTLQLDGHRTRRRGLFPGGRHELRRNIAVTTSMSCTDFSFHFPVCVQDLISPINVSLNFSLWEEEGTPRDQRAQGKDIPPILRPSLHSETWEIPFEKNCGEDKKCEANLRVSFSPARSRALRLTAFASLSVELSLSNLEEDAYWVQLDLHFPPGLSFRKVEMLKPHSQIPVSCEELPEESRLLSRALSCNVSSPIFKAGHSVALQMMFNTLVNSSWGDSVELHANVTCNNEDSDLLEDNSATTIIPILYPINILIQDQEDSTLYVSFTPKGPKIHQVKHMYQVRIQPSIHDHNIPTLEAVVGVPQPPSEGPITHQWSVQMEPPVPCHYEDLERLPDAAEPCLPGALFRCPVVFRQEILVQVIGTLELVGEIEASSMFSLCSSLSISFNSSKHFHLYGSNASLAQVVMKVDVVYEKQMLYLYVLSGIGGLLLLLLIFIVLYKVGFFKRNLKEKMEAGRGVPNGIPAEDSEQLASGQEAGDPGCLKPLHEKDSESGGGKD
Sequence (P05107 23-769 partner): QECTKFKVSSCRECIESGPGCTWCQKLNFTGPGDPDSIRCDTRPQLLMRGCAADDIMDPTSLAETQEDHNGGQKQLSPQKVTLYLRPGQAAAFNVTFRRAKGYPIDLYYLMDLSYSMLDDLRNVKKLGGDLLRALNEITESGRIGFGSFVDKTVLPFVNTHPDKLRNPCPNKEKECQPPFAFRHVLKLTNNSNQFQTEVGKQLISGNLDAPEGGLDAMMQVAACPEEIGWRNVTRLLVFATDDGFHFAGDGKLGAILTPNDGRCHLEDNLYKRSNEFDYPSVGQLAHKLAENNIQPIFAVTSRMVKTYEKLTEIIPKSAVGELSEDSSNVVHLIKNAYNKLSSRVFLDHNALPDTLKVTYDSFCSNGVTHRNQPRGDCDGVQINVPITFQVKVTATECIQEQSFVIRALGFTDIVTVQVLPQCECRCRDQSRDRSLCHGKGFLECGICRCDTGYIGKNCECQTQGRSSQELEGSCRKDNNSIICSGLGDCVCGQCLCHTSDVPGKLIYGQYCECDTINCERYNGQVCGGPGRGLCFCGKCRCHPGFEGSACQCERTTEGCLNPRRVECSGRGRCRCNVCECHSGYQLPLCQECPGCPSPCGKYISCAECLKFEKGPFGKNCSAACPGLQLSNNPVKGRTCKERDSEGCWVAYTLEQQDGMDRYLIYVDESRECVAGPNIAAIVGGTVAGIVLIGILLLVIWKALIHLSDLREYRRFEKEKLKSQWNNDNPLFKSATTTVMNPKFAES
pIC50: −log10 of the molar value.
readout-kind: pIC50

Cc1ccc(-c2ccc(C3(NC(=O)C4(NC(=O)c5cnc6n5[C@](C)(Cc5ccc(C#N)cc5)C(=O)N6c5cc(Cl)cc(Cl)c5)CC4)CC3)nc2)cn1; 8.96
C[C@@]1(Cc2ccc(C#N)cc2)C(=O)N(c2cc(Cl)c(F)c(Cl)c2)c2ncc(C(=O)NC3(C(=O)NC4(c5ccc(-c6ccc7nccn7c6)cn5)CC4)CC3)n21; 9.00
C[C@@]1(Cc2ccc(C#N)cc2)C(=O)N(c2cc(Cl)c(F)c(Cl)c2)c2ncc(C(=O)NC3(C(=O)NC4(c5ncc(-c6ccc(CO)cc6)cn5)CC4)CC3)n21; 8.85
Cc1ccc(-c2ccc(C(C)NC(=O)C(NC(=O)c3cnc4n3C(C)(Cc3ccc(C#N)cc3)C(=O)N4c3cc(Cl)c(F)c(Cl)c3)C(C)O)nc2)cn1 (centres unmarked); 9.21
CN(C)C(=O)c1cccc(-c2ccc(C3(NC(=O)C4(NC(=O)c5cnc6n5[C@](C)(Cc5ccc(C#N)cc5)C(=O)N6c5cc(Cl)cc(Cl)c5)CC4)CC3)nc2)c1; 9.17

###

biological target: LFA-1 (CD18/CD11a) binding to ICAM-1 (Homo sapiens, UniProt P05107+P20701); construct: followed by purified LFA-1 (in buffer of 50 mM triethylamine, 150 mM NaCl, 1% beta octylglucoside); assay: LFA-1/Biotin-sICAM-1 AlphaScreen assay: inhibition of LFA-1 binding to ICAM-1; conditions: 37° C. 90 minutes, highest compound concentration 1 μM
pIC50: −log10 of the molar value.
readout-kind: pIC50

C[C@@]1(Cc2ccc(C#N)cc2)C(=O)N(c2cc(Cl)cc(Cl)c2)c2ncc(C(=O)NC3(C(=O)NC4(c5ccc(-c6cnc7[nH]ccc7c6)cn5)CC4)CC3)n21 [Compound 146]; 8.80
C[C@@]1(Cc2ccc(C#N)cc2)C(=O)N(c2cc(Cl)cc(Cl)c2)c2ncc(C(=O)NC3(C(=O)NC4(c5ccc(-c6cccc(CO)c6)cn5)CC4)CC3)n21 [Compound 143]; 8.72
C[C@@]1(Cc2ccc(C#N)cc2)C(=O)N(c2cc(Cl)c(F)c(Cl)c2)c2ncc(C(=O)NC3(C(=O)NC4(c5ccc(-c6ccc(CO)cc6)cn5)CC4)CC3)n21 [Compound 100]; 8.89

###

target: LFA-1 (CD18/CD11a) binding to ICAM-1 (Homo sapiens, UniProt P05107+P20701); construct: followed by purified LFA-1 (in buffer of 50 mM triethylamine, 150 mM NaCl, 1% beta octylglucoside); assay: LFA-1/Biotin-sICAM-1 AlphaScreen assay: inhibition of LFA-1 binding to ICAM-1; settings: 37° C. 90 minutes, highest compound concentration 1 μM
pIC50: −log10 of the molar value.
readout-kind: pIC50

C[C@@]1(Cc2ccc(C#N)cc2)C(=O)N(c2cc(Cl)c(F)c(Cl)c2)c2ncc(C(=O)NC3(C(=O)NC4(c5ccc(-c6ccc(S(C)(=O)=O)cc6)cn5)CC4)CC3)n21; 8.89
C[C@@]1(Cc2ccc(C#N)cc2)C(=O)N(c2cc(Cl)c(F)c(Cl)c2)c2ncc(C(=O)NC3(C(=O)NC4(c5ccc(-c6cccc(C(N)=O)c6)cn5)CC4)CC3)n21; 9.10
C[C@H](NC(=O)c1cnc2n1[C@](C)(Cc1ccc(C#N)cc1)C(=O)N2c1cc(Cl)c(F)c(Cl)c1)C(=O)NC1(c2ccc(-c3ccc(CO)nc3)nc2)CC1; 9.55
C[C@@]1(Cc2ccc(C#N)cc2)C(=O)N(c2cc(Cl)cc(Cl)c2)c2ncc(C(=O)NC3(C(=O)NC4(c5ccc(-c6cccc(S(C)(=O)=O)c6)cn5)CC4)CC3)n21; 9.28
Cn1cc(-c2cnc(C3(NC(=O)C4(NC(=O)c5cnc6n5[C@](C)(Cc5ccc(C#N)cc5)C(=O)N6c5cc(Cl)c(F)c(Cl)c5)CC4)CC3)nc2)cn1; 9.29
C[C@@]1(Cc2ccc(C#N)cc2)C(=O)N(c2cc(Cl)cc(Cl)c2)c2ncc(C(=O)NC3(C(=O)NC4(c5ccc(-c6cccc(O)c6)cn5)CC4)CC3)n21; 8.77
Cn1ncc(-c2ccc(C3(NC(=O)C4(NC(=O)c5cnc6n5[C@](C)(Cc5ccc(C#N)cc5)C(=O)N6c5cc(Cl)c(F)c(Cl)c5)CC4)CC3)nc2)c1C1CC1; 8.74
Cn1cc(-c2ccc(C3(NC(=O)C4(NC(=O)c5cnc6n5[C@](C)(Cc5ccc(C#N)cc5)C(=O)N6c5cc(Cl)c(F)c(Cl)c5)CC4)CC3)nc2)c(C2CC2)n1; 8.96
C[C@@]1(Cc2ccc(OC(F)(F)F)cc2)C(=O)N(c2cc(Cl)c(F)c(Cl)c2)c2ncc(C(=O)NC3(C(=O)NC4(c5ncc(-c6ccc(CO)nc6)cn5)CC4)CC3)n21; 9.19
C[C@@]1(Cc2ccc(C#N)cc2)C(=O)N(c2cc(Cl)cc(Cl)c2)c2ncc(C(=O)NC3(C(=O)NC4(c5ccc(-c6ccc(C(N)=O)cc6)cn5)CC4)CC3)n21; 9.00
C[C@@]1(Cc2ccc(C#N)cc2)C(=O)N(c2cc(Cl)c(F)c(Cl)c2)c2ncc(C(=O)NC3(C(=O)NC4(c5ccc6cc(-c7cn[nH]c7)cnc6n5)CCC4)CC3)n21; 9.00
C[C@@]1(Cc2ccc(C#N)cc2)C(=O)N(c2cc(Cl)cc(Cl)c2)c2ncc(C(=O)NC3(C(=O)NC4(c5ccc(-c6cn[nH]c6)cn5)CC4)CC3)n21; 9.66
Cc1nn(C)cc1-c1ccc(C2(NC(=O)[C@@H](NC(=O)c3cnc4n3[C@](C)(Cc3ccc(C#N)cc3)C(=O)N4c3cc(Cl)c(F)c(Cl)c3)[C@@H](C)O)CC2)nc1; 9.25
C[C@@H](NC(=O)[C@@H](NC(=O)c1cnc2n1[C@](C)(Cc1ccc(C#N)cc1)C(=O)N2c1cc(Cl)c(F)c(Cl)c1)[C@@H](C)O)c1ccc(-c2ccc(CO)nc2)cn1; 9.07
Cc1nn(C)cc1-c1ccc(C2(NC(=O)C3(NC(=O)c4cnc5n4[C@](C)(Cc4ccc(C#N)cc4)C(=O)N5c4cc(Cl)c(F)c(Cl)c4)CC3)CC2)nc1; 8.85
Cn1cc(-c2cnc(C3(NC(=O)C4(NC(=O)c5cnc6n5[C@](C)(Cc5ccc(OC(F)(F)F)cc5)C(=O)N6c5cc(Cl)c(F)c(Cl)c5)CC4)CC3)nc2)cn1; 8.77
Cn1cc(-c2ccc(C3(NC(=O)C4(NC(=O)c5cnc6n5[C@](C)(Cc5ccc(C#N)cc5)C(=O)N6c5cc(Cl)cc(Cl)c5)CC4)CC3)nc2)cn1; 9.48
C[C@H](NC(=O)c1cnc2n1[C@](C)(Cc1ccc(C#N)cc1)C(=O)N2c1cc(Cl)c(F)c(Cl)c1)C(=O)NC1(c2ccc(-c3cnn(C)c3)cn2)CC1; 9.05
C[C@@H](NC(=O)C1(NC(=O)c2cnc3n2[C@](C)(Cc2ccc(OC(F)(F)F)cc2)C(=O)N3c2cc(Cl)c(F)c(Cl)c2)CC1)c1ccc(-c2ccc(CO)nc2)cn1; 8.89
Cc1cc(-c2ccc(C3(NC(=O)C4(NC(=O)c5cnc6n5[C@](C)(Cc5ccc(C#N)cc5)C(=O)N6c5cc(Cl)cc(Cl)c5)CC4)CC3)nc2)ccn1; 9.28
C[C@@]1(Cc2ccc(C#N)cc2)C(=O)N(c2cc(Cl)c(F)c(Cl)c2)c2ncc(C(=O)NC3(C(=O)NC4(c5ccc(-c6cn[nH]c6)cn5)CC4)CC3)n21; 8.92

###

target: LFA-1 (CD18/CD11a) binding to ICAM-1 (Homo sapiens, UniProt P05107+P20701); construct: followed by purified LFA-1 (in buffer of 50 mM triethylamine, 150 mM NaCl, 1% beta octylglucoside); assay: LFA-1/Biotin-sICAM-1 AlphaScreen assay: inhibition of LFA-1 binding to ICAM-1; conditions: 37° C. 90 minutes, highest compound concentration 1 μM
readout-kind: IC50 (nM)

C[C@@]1(Cc2ccc(C#N)cc2)C(=O)N(c2cc(Cl)cc(Cl)c2)c2ncc(C(=O)NC3(C(=O)NC4(c5ccc(-c6ccc(Cl)nc6)cn5)CC4)CC3)n21; 1
Cn1cc(-c2ccc(C3(NC(=O)C4(NC(=O)c5cnc6n5[C@](C)(Cc5ccc(Br)cc5)C(=O)N6c5cc(Cl)cc(Cl)c5)CC4)CC3)nc2)cn1; 1.2
C[C@@]1(Cc2ccc(OC(F)(F)F)cc2)C(=O)N(c2cc(Cl)c(F)c(Cl)c2)c2ncc(C(=O)NC3(C(=O)NC4(c5ccc(-c6cn[nH]c6)nn5)CC4)CC3)n21; 1.3
